system: corn; test: Test B pre-/postemergence herbicide test; assay type: in vivo, Zea mays; conditions: Postemergence, 500 g ai/ha; scale 0 (no effect) to 100 (complete control)
Overview of recorded Corn plant response rating for various compounds
measurement label: Corn plant response rating

>>> reported_measurement("CCc1nn(C(C)(C)C)nc1C(=O)Nc1cccc(C(=S)N(C)C)c1")
60
>>> reported_measurement("C=Cc1nn(C(C)(C)C)nc1C(=O)Nc1cccc(C(=O)N(C)C)c1")
40
>>> reported_measurement("Cc1nn(C(C)(C)C)nc1C(=O)Nc1cc(C(=O)N(C)C)ccn1")
20
>>> reported_measurement("Cc1nn(C(C)(C)C)nc1C(=O)Nc1cccc(C(=O)N2CC=CC2)c1")
20
>>> reported_measurement("Cc1nn(C(C)C)nc1C(=O)Nc1cccc(C(=O)N2CC=CC2)c1")
10
